- assayedTarget: Human CARM1 (PRMT4) (Homo sapiens)
- Construct: Flag-CARM1-His; made in house; host or cells: HEK 293F cells (BacMam baculovirus)
- Sequence (Q86X55 1-585 isoform Q86X55-1): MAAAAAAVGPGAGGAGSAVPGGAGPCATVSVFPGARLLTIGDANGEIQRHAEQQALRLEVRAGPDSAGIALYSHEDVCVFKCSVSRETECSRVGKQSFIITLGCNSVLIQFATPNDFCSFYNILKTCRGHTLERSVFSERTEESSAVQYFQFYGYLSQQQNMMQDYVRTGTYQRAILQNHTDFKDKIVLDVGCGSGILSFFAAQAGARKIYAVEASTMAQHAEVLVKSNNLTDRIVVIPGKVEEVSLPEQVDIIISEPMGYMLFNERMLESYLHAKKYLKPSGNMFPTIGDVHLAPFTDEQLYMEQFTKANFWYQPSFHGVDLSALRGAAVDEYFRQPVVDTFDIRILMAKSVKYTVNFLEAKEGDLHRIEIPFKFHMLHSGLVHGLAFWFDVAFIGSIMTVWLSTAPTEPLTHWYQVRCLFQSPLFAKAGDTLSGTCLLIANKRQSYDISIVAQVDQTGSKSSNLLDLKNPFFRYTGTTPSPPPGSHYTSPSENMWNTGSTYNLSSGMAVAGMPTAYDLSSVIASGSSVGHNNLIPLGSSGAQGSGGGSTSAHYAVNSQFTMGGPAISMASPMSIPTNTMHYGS
- assaySummary: CARM1 Biochemical Assay
- cond: PRMT4 biochemical evaluation (numerical), single experiment or average of multiple experiments
pIC50: −log10 of the molar value.
attributeMeasured: pIC50

> print(dat)
                                   molecule                       assayedtarget  assayvalue
1  CNCCN(C)Cc1n[nH]c2ccc(Oc3cccc(OC(C)C)c3)cc12  Human CARM1 (PRMT4) (Homo sapiens)        6.17
2  CNCCN(C)Cc1n[nH]c2cccc(OCCC(O)CO)c12 (stereo not drawn)  Human CARM1 (PRMT4) (Homo sapiens)        5.68

[1] CNCCN(C)Cc1n[nH]c2ccc(OCc3cccc(C(C)(C)C)c3)cc12
[2] CNCCN(C)Cc1n[nH]c2ccc(OCc3cccc(C(F)(F)F)c3)cc12
input: # compare pIC50 for 1 vs 2 ; return the one with the smaller value In your reply, give the label of the chosen option.
output: 2
(2: 6.05, 1: 6.52)
